Data provenance is PubChem BioAssay AID686979.

Experimental protocol: qHTS for Inhibitors of human tyrosyl-DNA phosphodiesterase 1 (TDP1): qHTS in cells in presence of CPT; note: nearly all actives have a fitted effect of over 55% in size
Settings: chicken DT40 Tdp1-/-;hTDP1 cells + 20 nM CPT, ATP luminescence, 48 h; series mostly up to 46.2 µM
Description: Human tyrosyl-DNA phosphodiesterase 1 (TDP1) is a novel repair gene, and we propose to use it as a new target for anticancer drug development. […] For the primary screen, Tdp1-/-;hTDP1 cells will be exposed to small molecules in the presence or absence of CPT, and their growth kinetics will be evaluated after 48 hours by measuring ATP activity. […] The hit compounds will then be evaluated in the presence or absence of CPT using Tdp1-/- cells. […]
Hit rate of the full screen: of about 420,000 compounds, about 50,000 (12%) were called active. Another 26% or so got no clear call; they are omitted. Calls come from the whole dose curve; as a rule, active = well fitted inhibition curve with a large enough effect; inconclusive = small, poorly fitted or top-dose-only effect; inactive = flat fitted curve, though single readings scatter. The sample holds actives, similar compounds and a random draw of the others, so the mix is not that of the screen.
The reply should be one of these categories: active, inactive

Completed entries (count: 5):
[
  {
    "Compound": "Cc1ccnc(NS(=O)(=O)c2ccc(NC(=O)c3oc4ccc(F)cc4c3C)cc2)n1",
    "Assigned category": "inactive"
  },
  {
    "Compound": "O=C(COc1ccccc1F)Nc1nc(-c2ccccn2)cs1",
    "Assigned category": "active"
  },
  {
    "Compound": "CN(C)/C=C(/C(=O)c1ccccc1)S(=O)(=O)c1ccc(Cl)cc1",
    "Assigned category": "inactive"
  },
  {
    "Compound": "CC(NC(=O)c1ccco1)C(=O)Nc1nc(-c2ccccn2)cs1 (configuration not stated)",
    "Assigned category": "active"
  },
  {
    "Compound": "Cc1ccc(S(=O)(=O)N2CCC(C)CC2)cc1C(=O)NCc1ccccn1",
    "Assigned category": "inactive"
  }
]

Shift focus to the following entry.
Task item: Please state the recorded outcome for this compound: Cc1cc(NC(=O)[C@H](C)NC(=O)c2ccco2)ccc1Br
Reply: inactive
